# assay-name: qHTS assay to identify small molecule agonists of the androgen receptor (AR) signaling pathway in the presence of an antagonist - cell viability counter screen (AID 1259379); also: nearly all actives have a fitted effect of over 25% in size
# applied-conditions: MDA-kb2 viability, CellTiter-Fluor, 16 h; series mostly up to 92.4 µM
Records with an inconclusive call do not appear. Active and inactive are the calls of the source. Calls follow the shape of the dose curve; as a rule, active = well fitted cell-killing curve with a large enough effect in the repeat runs; inconclusive = weak or mixed curves, or effect the other way; inactive = flat fitted curve, though single readings scatter.
Outcomes: active, inactive

> print(dat)
                                    compound  answer.label
 1          O=[N+]([O-])c1cc(Cl)c(Cl)c(Cl)c1        active
 2  COC(=O)c1ccccc1S(=O)(=O)NC(=O)Nc1nc(C)cc(C)n1      inactive
 3           CN1CCC(N(Cc2ccccc2)c2ccccc2)CC1      inactive
 4                               CCCCC(=O)Cl      inactive
 5               ClCCCN1CCN(c2cccc(Cl)c2)CC1      inactive
 6                        C1CCC(C2CCCCC2)CC1      inactive
 7    Cc1ncc2n1-c1ccc(Cl)cc1C(c1ccccc1F)=NC2      inactive
 8                 CCS(=O)(=O)CCSP(=O)(OC)OC      inactive
 9  CC(C)CC(N(C)C)C1(c2ccc(Cl)cc2)CCC1 (stereo not given)      inactive
10  CCN(CC)C(=O)[C@@H]1C=C2c3cccc4[nH]cc(c34)C[C@H]2N(C)C1      inactive
11  CCC(C)n1c(=O)[nH]c(C)c(Br)c1=O (stereo not given)      inactive
12           C=CC1CC=CCC1 (stereo not given)      inactive
13                  [Cl][Sn]([Cl])([Cl])[Cl]      inactive
14  CCC(C)(C)c1cc(-n2nc3ccccc3n2)c(O)c(C(C)(C)CC)c1      inactive
15                 O=[N+]([O-])c1ccc(CBr)cc1      inactive
16  COc1ncc(F)c2nc(S(=O)(=O)Nc3c(F)cccc3F)nn12      inactive
17  O=C1OC(CCN2CCCCC2)OC1(c1ccccc1)c1ccccc1 (stereo not given)      inactive
18                c1cc[c]([Hg][c]2ccccc2)cc1      inactive
19   CCN(Cc1ccc(Cl)nc1)/C(=C/[N+](=O)[O-])NC      inactive
20  C[C@]1(O)CC[C@H]2[C@@H]3CCC4=CC(=O)CC[C@]4(C)[C@@]3(F)[C@@H](O)C[C@@]21C      inactive
21     CCN(CC)CCOC(=O)C(C)(c1ccccc1)c1ccccc1      inactive
22     CNC(=O)Oc1c(C(C)(C)C)cc(C)cc1C(C)(C)C      inactive
23                    CNCC(=O)c1ccc(O)c(O)c1      inactive
24  CC(CC(C#N)(c1ccccc1)c1ccccc1)N(C)C (stereo not given)      inactive
25                    CCOP(=O)(N=C1SCCS1)OCC      inactive
26                   O=C(Nc1ccccc1)c1ccccc1I      inactive
27                        CN(C)CCc1ccc(O)cc1      inactive
28  CCOC(=O)C1(c2ccccc2)CCN(CCc2ccc(N)cc2)CC1      inactive
29                   CC(=O)CCc1ccc2c(c1)OCO2      inactive
30                                  CCCCCCBr      inactive
31  COc1cc(OC)nc(NC(=O)NS(=O)(=O)c2ncccc2OCC(F)(F)F)n1      inactive
32                   O=[N+]([O-])c1cccc(O)c1      inactive
33  O=c1oc2ccccc2c(O)c1C1CCCc2ccccc21 (stereo not given)      inactive
34  NC1=NC(=O)C(c2ccccc2)O1 (stereo not given)      inactive
35                              Cc1ncsc1CCCl      inactive
36                   COC(=O)COc1ccc(Cl)cc1Cl      inactive
37                               O=C(NCO)NCO      inactive
38  Cc1ccccc1CO[C@@H]1C[C@@]2(C(C)C)CC[C@]1(C)O2      inactive
39                            ClC(Cl)C(Cl)Cl      inactive
40  Fc1ccc(C2(Cn3cncn3)OC2c2ccccc2Cl)cc1 (stereo not given)      inactive
41  COc1ccc2c(c1OC)CN1CCc3cc4c(cc3C1C2)OCO4 (stereo not given)      inactive
42  CCC/C(=N\OCC)C1=C(O)CC(CC(C)SCC)CC1=O (stereo not given)      inactive
43                  CCCCOC(=O)c1ccccc1C(=O)O      inactive
44  CCOC(=O)C(c1c(O)c2ccccc2oc1=O)c1c(O)c2ccccc2oc1=O      inactive
45  N#CC(CCc1ccc(Cl)cc1)(Cn1cncn1)c1ccccc1 (stereo not given)        active
46                 CCCCc1c(C)nc(NCC)[nH]c1=O      inactive
47                              NC(=S)C(N)=S      inactive
48              CCOP(=S)(OCC)SCSc1ccc(Cl)cc1      inactive
49  CC(C(=O)c1ccccc1)N(C)C (stereo not given)      inactive
50             CCS(=O)(=O)C(C)(C)S(=O)(=O)CC      inactive
51    CCC(Cl)[N+](=O)[O-] (stereo not given)      inactive
52  Nc1cc2c3c(c1)C(c1ccccc1)=N[C@@H](NC(=O)c1cccnc1)C(=O)N3CC2      inactive
53                                  [O]=[Cd]      inactive
54                           CCC(=O)c1ccccc1      inactive
55  C#CCN1C(=O)COc2cc(F)c(N3C(=O)C4=C(CCCC4)C3=O)cc21      inactive

Where do these numbers come from? They come from PubChem BioAssay (Tox21).
